Source of measurements: the supplement of paper PMC6555819

Would you mind telling me the reported PBM binding z-score of each entry?
System: LXRa:RXRa (NR concentration 270 nM, RXRa partner concentration 90 nM)
protocol.details: PBM binding z-score (relative to random genomic background probes); higher = stronger binding; sequences stand for … in GC…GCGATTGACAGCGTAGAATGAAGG
Answers are plain numbers.

# annotated cases, reported PBM binding z-score shown
input_sequence=ATCGAAATGTCGACGAGGTGAGTATACACCGTTT endpoint_result=-0.263
input_sequence=TCATATAGGTGAACAGGTGAAAGTCCGTAAGTTA endpoint_result=1.14
input_sequence=CCTATTTGGTCAAGGTCACACACGCTATAGGTAC endpoint_result=4.04
input_sequence=CGTCCAAGGTCAAAGGTCAGTTAAGAGATGACGG endpoint_result=6.95

Give me PBM binding z-score for each of these sequences, listed below.
1. CGAACTAGGTCATGCAGGACAGTGAATACATTGA
2. CCTCGGAGGACAGACGGTCAGAGCTGTCCGCTTT
3. CGTCCAAGGTCAAAGTTCAGTGAAGAGATGACGG
4. CCTACTGGGCCATTCAGACGTCATTGATCATATG

[2.17, -0.454, 6.35, -0.532]

---

Tested on: LXRa homodimer (NR concentration 270 nM)
protocol.details: PBM binding z-score (relative to random genomic background probes); higher = stronger binding; sequences stand for … in GC…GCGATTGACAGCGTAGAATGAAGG
Use True when the recorded PBM binding z-score is no lower than -0.02; use False when it is lower.

Reference set (3 entries):
input_sequence=ACTTACGGGTCAACGAGGGTATAGCACGCGTATA system_under_test="LXRa homodimer (NR concentration 270 nM)" category_label=True
input_sequence=ATCTCTAGGTAACCAAGCTCAGTGAATGCCGAAC system_under_test="LXRa homodimer (NR concentration 270 nM)" category_label=False
input_sequence=TCTGCTAGGTCAACGATGGTCAGCTACTCTGCTA system_under_test="LXRa homodimer (NR concentration 270 nM)" category_label=False

State whether the measured PBM binding z-score reaches -0.02, counting equality as reaching it, for AGAATGAGGTTATTTAGATCAGGGAATTGCGGTC
True

State whether the measured PBM binding z-score reaches -0.02, counting equality as reaching it, for TCATATAGGTATAGGTGAAAGTCGAACGATATGA
False

State whether the measured PBM binding z-score reaches -0.02, counting equality as reaching it, for TGAATGAGGTTAAAGATTAGGGAACGTGGCGTCG
True

State whether the measured PBM binding z-score reaches -0.02, counting equality as reaching it, for CAAACTAGCTCACAGAGGTCAAAGTCCGTGCGTA
True

State whether the measured PBM binding z-score reaches -0.02, counting equality as reaching it, for TCTTGTAAATCAGCAGGTTAAGAAAGCTGGCCAA
False

State whether the measured PBM binding z-score reaches -0.02, counting equality as reaching it, for GCTATTACTTGAAAGGGCAACCGAATGATTCTCG
True

State whether the measured PBM binding z-score reaches -0.02, counting equality as reaching it, for AGAATGAGTTTACCAAAGATCAGGGAAACGCTTG
False

State whether the measured PBM binding z-score reaches -0.02, counting equality as reaching it, for ATCTCTAGGTAAAGATAGTTCAGAGAATGCAAAT
True

State whether the measured PBM binding z-score reaches -0.02, counting equality as reaching it, for ACTACCAGGCCAAGTTTGGGTCACTCAAACAAAG
True

State whether the measured PBM binding z-score reaches -0.02, counting equality as reaching it, for GTTCGGAGGACAAGGTCAGAGCTTTGTCCGTAGA
False

---

Tested on: LXRa:RXRa (NR concentration 270 nM, RXRa partner concentration 90 nM)
protocol.details: PBM binding z-score (relative to random genomic background probes); higher = stronger binding; sequences stand for … in GC…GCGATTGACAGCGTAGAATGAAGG
Use Satisfied when the recorded PBM binding z-score is no lower than 0.7; use Not satisfied when it is lower.

Reference set (10 entries):
input_sequence=TCGAGTAGGTTCCCAATGGGGCATTCAGCTTTCT category_label="Not satisfied"
input_sequence=AGAATGAGGTTACCAAAGATCAGGGCAACGCTTG category_label=Satisfied
input_sequence=TCTTGTAGATCAAGGAGGTTAAGAAAGCCTGAGT category_label="Not satisfied"
input_sequence=CCGAGTAGGTTATGGGGCATACAGGCAACGGTGA category_label="Not satisfied"
input_sequence=CTACCAAGGTGAACAAGGTCGTTGAGTACTATTC category_label=Satisfied
input_sequence=GGAACGAGGGCAAGTTGTTAGCAGAGTTTGATGG category_label="Not satisfied"
input_sequence=TCTGCTAGCTCAGTTGGTCAGCTAACGAGCTGCC category_label="Not satisfied"
input_sequence=TCTGCTAGGTCAGTTGGTCACCTAACGAGCTGCC category_label=Satisfied
input_sequence=CCGACTGGTGCAGAAAGGTTACCATACCATCCGG category_label="Not satisfied"
input_sequence=ACTAGCAGGCCAAGTTTGGGTAACTCAAACAAAG category_label="Not satisfied"

State whether the measured PBM binding z-score reaches 0.7, counting equality as reaching it, for GCGACTGGGGCATCTGCAGGTTACCATAACTTAA
Not satisfied

State whether the measured PBM binding z-score reaches 0.7, counting equality as reaching it, for GTACCAAGGTGAATAGGTTGTTGATGAGTAGGCG
Not satisfied

State whether the measured PBM binding z-score reaches 0.7, counting equality as reaching it, for GCTATTAGTTGAAAGGGGAACCGAATGATTCTCG
Not satisfied

State whether the measured PBM binding z-score reaches 0.7, counting equality as reaching it, for ATCTCTAGGTAAAAGTTCAGAGAATCCCGAGGAT
Satisfied

State whether the measured PBM binding z-score reaches 0.7, counting equality as reaching it, for TCCTGTAGATCAACAGGAGGTTAAGAAAGATCGA
Satisfied

State whether the measured PBM binding z-score reaches 0.7, counting equality as reaching it, for CGAACTAGGTCAGAACAGGAGAGTGAAGGATGAT
Not satisfied

State whether the measured PBM binding z-score reaches 0.7, counting equality as reaching it, for ATCGAAAGGTCGTGAGGAGAGTATACAGAAAGGC
Satisfied

State whether the measured PBM binding z-score reaches 0.7, counting equality as reaching it, for CGTCCAAGGTCAGAGAGGTCAGTCAATGCCGAGT
Satisfied

State whether the measured PBM binding z-score reaches 0.7, counting equality as reaching it, for CCTACTGGGCCAAAAGTCATTGATTCCAATGCTC
Not satisfied

State whether the measured PBM binding z-score reaches 0.7, counting equality as reaching it, for CCTTACGAGTCACTGACAGGTTATAGCATTTGGA
Satisfied

State whether the measured PBM binding z-score reaches 0.7, counting equality as reaching it, for ACAGACAGGTGAGTGAAGGTAACTCACCTGGACG
Not satisfied

State whether the measured PBM binding z-score reaches 0.7, counting equality as reaching it, for AGGATGAGGTTAAGATCAGGGAAACAGAATACAT
Satisfied

State whether the measured PBM binding z-score reaches 0.7, counting equality as reaching it, for TCATATAGGTAAATGCTAGGTGAATGTCCGATCT
Satisfied

State whether the measured PBM binding z-score reaches 0.7, counting equality as reaching it, for ATCGAAAGGTTGACGAGGTGAGTATACACCGTTT
Satisfied

State whether the measured PBM binding z-score reaches 0.7, counting equality as reaching it, for CCTGCTAGGTCATCGTCAGCTAATCTACAGTATG
Satisfied

State whether the measured PBM binding z-score reaches 0.7, counting equality as reaching it, for TCTGCTAGGTGAACGATGGTCAGCTAATCTGCTA
Not satisfied

State whether the measured PBM binding z-score reaches 0.7, counting equality as reaching it, for TAGCCTATGTCAGATCGGGCCAGTATACGCTATA
Not satisfied

State whether the measured PBM binding z-score reaches 0.7, counting equality as reaching it, for TCACCAAGGTGAAAGGTCGTTGATGCACGCCTTG
Satisfied

State whether the measured PBM binding z-score reaches 0.7, counting equality as reaching it, for GATACAGGGTCAGGTAGAGGCCAGAGTATGGAAA
Satisfied

State whether the measured PBM binding z-score reaches 0.7, counting equality as reaching it, for CCGACTGGGGCCAAGGTTACCATACTCAGTACGA
Not satisfied

State whether the measured PBM binding z-score reaches 0.7, counting equality as reaching it, for GCTAGTTGGTCAGTAAAAGGTTACACACCGGTCG
Satisfied

State whether the measured PBM binding z-score reaches 0.7, counting equality as reaching it, for CGAACTAGGTCATAGACAGGACAGTGAATAGTAA
Satisfied

State whether the measured PBM binding z-score reaches 0.7, counting equality as reaching it, for TCATAAAGGTAAACAGGTGAAAGTCCGTAAGTTA
Satisfied

State whether the measured PBM binding z-score reaches 0.7, counting equality as reaching it, for ATACGTAGGTTAGCTGGGGTCATTCAGACTAGGC
Satisfied
